# Test system: PC-3 prostate
# TEST: NCI-60 one-dose screen, 48 h
# CONDITIONS: 10 µM unless noted
Compounds without any hit were thinned out: in the full panel of roughly 83,000, 20% have a hit. The source made the active and inactive calls. How the source made its calls: active means growth percent below 10; inactive means the rest.
Hi! Could you answer with just one of these? TRUE = active, FALSE = inactive

Illustrative cases are given below, each with its answer.
COMPOUND | DISCRETE_LABEL
Cn1cc(-c2ccc(F)c(C(F)(F)F)c2)nc1C1CCN(c2ncnc3[nH]ncc23)CC1 | FALSE
CC(=O)OC1Oc2ccccc2-c2oc(=O)c(-c3cc4ccc(N(C)C)cc4oc3=O)cc21 (configuration not stated) | FALSE
CCc1cc2c(c3ccc(C(=O)CBr)cc13)CCCC2 | FALSE
CS(=O)(=O)N1CCN(Cc2cc3nc(-c4cccc5[nH]ncc45)nc(N4CCOCC4)c3s2)CC1 | FALSE

Q) What call does the record list for `CCN(CCN(C)C)C(=O)CNCc1cc(C(N)=O)ccn1` ?
A) FALSE

Q) What call does the record list for `Cc1ccc(Nc2nccc(N(C)c3ccc4c(C)n(C)nc4c3)n2)cc1S(N)(=O)=O` ?
A) FALSE

====

Recorded growth values for a group of compounds are listed next.
# System: NCI-H460 lung
# TEST: NCI-60 one-dose screen, 48 h (100 = growth as untreated, 0 = no growth, -100 = all killed)
# CONDITIONS: 10 µM unless noted
About 83,000 compounds went through this panel and 20% of them were active in at least one assay; those are over-represented in the sample as a whole.
Give the number; % is assumed, so skip it.

COMPOUND | growth, %
COc1cc(N2CCC(N(C)C)CC2)ccc1Nc1ncc(Cl)c(Nc2ccccc2P(C)(C)=O)n1 | 7

// switching to the query compound
The recorded growth for entry CC(=Nc1ccccc1)C1=C(O)C(Cc2ccc(O)cc2)NC1=O (centres undefined) equals 4.41

====

# Tested on: SW-620 colon
# TEST: NCI-60 one-dose screen, 48 h (100 = growth as untreated, 0 = no growth, -100 = all killed)
# CONDITIONS: 10 µM unless noted
This is part of a sample that, as a whole, favours compounds with a hit. Of some 83,000 tested, about 20% had one in any assay.
Class membership depends on growth alone; the intervals are low interval: < 20%; middle interval: ≥ 20% and < 60%; high interval: ≥ 60%

Illustrative cases are given below, each with its answer.
MOLECULE | DISCRETE_LABEL
CC1(C)NC(=O)c2[nH]c3c(Cl)c(Cl)ccc3c2C1C#N (configuration not stated) | high interval
CO/C=C/C(=O)c1cc2cnc3c(=N)cc(NC(=O)C(C)C)c([nH]1)c23 | low interval
c1cc[n+](Cc2c3ccccc3cc3c2ccc2ccccc23)cc1 | middle interval
COc1cc(-c2cc(-c3ccc(Nc4ccnc5cc(Cl)ccc45)cc3)nc(N3CCOCC3)n2)cc(OC)c1OC | low interval
CCOc1cc2ncc(C#N)c(Nc3ccc(F)c(Cl)c3)c2cc1NC(=O)/C=C/CN(C)C | low interval

Q) Could you place CO[C@H](C(=O)N[C@@H](CCCCNC(=O)OCc1ccccc1)C(=O)OC(C)(C)C)[C@@H]1Cc2cc3cc(OC4CC(OC5CC(O)C(O)C(C)O5)C(O)C(C)O4)c(C)c(O)c3c(O)c2C(=O)[C@H]1OC1CC(OC2CC(OC3CC(C)(O)C(O)C(C)O3)C(O)C(C)O2)C(O)C(C)O1 (some centres not stated) in its proper category? Many thanks.
A) low interval

Q) Could you place `N#Cc1c(C(F)(F)F)cc(Nc2ccc3nc(NCCN4CCCC4)oc3c2)n2c1nc1ccccc12` in its proper category? Many thanks.
A) middle interval

Q) Could you place O=C1OCC2=C1C(c1cccc(F)c1)c1cc3c(cc1N2CCO)OCCO3 (configuration not stated) in its proper category? Many thanks.
A) middle interval

Q) Could you place `Nc1nc(Nc2ccccc2)c(C=Nc2ccccc2)c(=O)[nH]1` in its proper category? Many thanks.
A) high interval

Q) Could you place `Cc1cc(Nc2ncc(Cl)c(Nc3ccccc3S(=O)(=O)C(C)C)n2)c(OC(C)C)cc1C1CCNCC1` in its proper category? Many thanks.
A) low interval

Q) Could you place `N#CCNC(=O)c1ccc(-c2ccnc(Nc3ccc(N4CCOCC4)cc3)n2)cc1` in its proper category? Many thanks.
A) middle interval

Q) Could you place `CC[C@H](Nc1ncnc2nc[nH]c12)c1nc2cccc(F)c2c(=O)n1-c1ccccc1` in its proper category? Many thanks.
A) high interval

Q) Could you place `COc1cc2c(Nc3ccc(Br)cc3F)ncnc2cc1OCC1CCN(C)CC1` in its proper category? Many thanks.
A) middle interval

Q) Could you place `COc1ccc2c(CCc3ccc(Cl)cc3)c3[n+](cc2c1OC)CCc1cc2c(cc1-3)OCO2` in its proper category? Many thanks.
A) high interval

Q) Could you place `Cc1cc(Nc2cc(N3CCN(C)CC3)nc(Sc3ccc(NC(=O)C4CC4)cc3)n2)n[nH]1` in its proper category? Many thanks.
A) low interval
